Overview of reported IC50 across a group of compounds:
# METHOD: Inhibition of ATPase activity of yeast Hsp90
# Set-up: species or system Saccharomyces cerevisiae
Output spec: scalar in µM, unitless text.

> print(dat)
                    structure.smiles.string  endpoint.unit  value.observed
1  COC1=C2C[C@@H](C)C[C@H](OC)[C@H](O)[C@@H](C)/C=C(\C)[C@H](OC(N)=O)[C@@H](OC)/C=C\C=C(/C)C(=O)NC(=CC1=O)C2=O             µM               7

We next turn to a different compound, shown below.
Output measured IC50 for this item: `CO[C@H]1[C@@H](OC)C[C@H](C)[C@@H](OC)C2=CC(=O)C=C(NC(=O)/C(C)=C/C=C\[C@H](C)[C@@H](OC(N)=O)/C(C)=C/[C@@H]1C)C2=O`
2
